Experimental System: murine IL-21R expressed on cells (murine, UniProt Q9JHX3 20-529)
Sequence (Q9JHX3 20-529 limits assumed): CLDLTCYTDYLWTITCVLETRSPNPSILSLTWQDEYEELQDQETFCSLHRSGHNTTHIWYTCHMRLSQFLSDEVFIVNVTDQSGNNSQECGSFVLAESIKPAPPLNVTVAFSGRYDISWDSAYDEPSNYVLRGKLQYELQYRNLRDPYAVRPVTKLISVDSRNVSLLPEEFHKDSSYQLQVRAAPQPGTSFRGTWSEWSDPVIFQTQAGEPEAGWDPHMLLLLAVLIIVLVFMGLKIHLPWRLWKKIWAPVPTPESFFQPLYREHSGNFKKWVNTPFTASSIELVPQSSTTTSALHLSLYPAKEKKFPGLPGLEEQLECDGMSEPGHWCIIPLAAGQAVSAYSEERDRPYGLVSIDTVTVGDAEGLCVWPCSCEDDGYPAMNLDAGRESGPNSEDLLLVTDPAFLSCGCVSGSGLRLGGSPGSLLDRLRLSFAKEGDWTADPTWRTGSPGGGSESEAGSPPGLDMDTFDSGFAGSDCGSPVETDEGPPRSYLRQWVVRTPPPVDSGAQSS
Assay Procedure: cell-based or functional assay
Quick reference for IC50 (nM) in Murine IL-21R-BaF3 Neutralization Assay among some binders
Metric Name: IC50 (nM) in Murine IL-21R-BaF3 Neutralization Assay

Binder: scFv L8 (scFv) scFv: QVQLQESGPGLVKTSETLSLTCAVSGYSISSGYYWGWIRQPPGKGLEWIGSISHTGNTYYNPPLKSRVTISVDTSKNQFSLKLSSVTAADTAVYYCARGGGISRPEYWGKGTLVTVSSGGGGSGGGGSGGGGSALSSELTQDPPVSVALGQTVTLTCQGDSLRTYYASWYQQKSGQAPILLLYGKHKRPSGIPDRFSGSTSGDTASLTITGAQAEDEADYYCTTRSTQGNPHVLFGGGTQLTVL
Units Symbol: nM
Endpoint Value: 715
--
Binder: scFv L15 (scFv) scFv: QVQLQESGPGLVKTSETLSLTCAVSGYSISSGYYWGWIRQPPGKGLEWIGSISHTGNTYYNPPLKSRVTISVDTSKNQFSLKLSSVTAADTAVYYCARGGGISRPEYWGKGTLVTVSSGGGGSGGGGSGGGGSALSSELTQDPPVSVALGQTVTLTCQGDSLRTYYASWYQQKSGQAPILLLYGKHKRPSGIPDRFSGSTSGDTASLTITGAQAEDEADYYCSTRAIHGNPHVLFGGGTQLTVL
Units Symbol: nM
Endpoint Value: 53.5
--
Binder: scFv L9 (scFv) scFv: QVQLQESGPGLVKTSETLSLTCAVSGYSISSGYYWGWIRQPPGKGLEWIGSISHTGNTYYNPPLKSRVTISVDTSKNQFSLKLSSVTAADTAVYYCARGGGISRPEYWGKGTLVTVSSGGGGSGGGGSGGGGSALSSELTQDPPVSVALGQTVTLTCQGDSLRTYYASWYQQKSGQAPILLLYGKHKRPSGIPDRFSGSTSGDTASLTITGAQAEDEADYYCVARSNKGNPHVLFGGGTQLTVL
Units Symbol: nM
Endpoint Value: 3.61
